Origin of values: a melting point compilation (Tetko et al.)

readout: melting point

smiles_record | readout | observed_result
O=C(N[C@@H]1CCCC[C@@H]1C(=O)O)c1ccccc1 | melting point | 204 to 208 °C
CN(C)C(=S)SC(=S)N(C)C | melting point | 106 to 110 °C
Fc1cc(Br)c(I)c(Br)c1 | melting point | 134 to 137 °C
BrCCCOc1ccc2cc3ccc(OCCCBr)cc3nc2c1 | melting point | 142 °C
O=C(/C(=N/Nc1ccc(Br)cc1)S(=O)(=O)c1ccccc1)c1cccs1 | melting point | 158 °C
O=C(Oc1c(F)c(F)c(F)c(F)c1F)Oc1c(F)c(F)c(F)c(F)c1F | melting point | 48 to 51 °C
CCOC(=O)c1c(Nc2ccc(OC)cc2)sc2c(-c3ccccc3)c3c(N)n[nH]c3nc12 | melting point | 248 to 252 °C
